Test system: SNB-75
ASSAY_NAME: NCI tumour cell line growth inhibition, 48 h
Calls of active or inactive are those of the source. Cut-off read from the data, not from the text of the source: active = GI50 up to about 1.1 µM and inactive = higher.
METRIC: GI50

{"COMPOUND": "CN1CCc2cc3c(c4c2C1C(O)c1ccccc1-4)OCO3 (centres undefined)", "RESULT": "12.6 µM (inactive)"}

Reported GI50 for SNB-75, given O=P(c1ccccc1)(c1ccccc1)c1ccc2c(c1)OCCOCCOCCOCCO2 ?
> 100 µM (inactive)

Reported GI50 for SNB-75, given COC1CC(OC)C2OC(c3ccccc3)OCC2O1 (centres undefined) ?
> 100 µM (inactive)

* * *

System: SR
ASSAY_NAME: NCI tumour cell line growth inhibition, 48 h
Active and inactive are the calls of the source. Cut-off read from the data, not from the text of the source: active = GI50 up to about 1.1 µM and inactive = higher. Residues, ends and D or L forms follow the SMILES beside them.
Result category, one only: Y for active, N for inactive

Examples from the recorded data:
{"COMPOUND": "COc1ccc(/C=C(/C)[N+](=O)[O-])cc1", "GROUP": "Y"}
{"COMPOUND": "C=C(C)C1CC=C(C)C(O)([C@@]2(O)C[C@H](C(=C)C)CC=C2C)C1 (some centres undefined)", "GROUP": "N"}
{"COMPOUND": "CCC(C)C(NC(=O)C1CCCN1)C(=O)NC(C(=O)NCC(=O)NC(CC(N)=O)C(=O)NC(CC(C)C)C(=O)NC(CC(C)C)C(=O)NC(CCCCN)C(N)=O)C(C)C (centres undefined) (H-PIVGNLLK-NH2; configuration not given here)", "GROUP": "N"}
{"COMPOUND": "O=C(O)c1ccc(NCc2nc3cc4ccccc4cc3[nH]2)cc1", "GROUP": "N"}
{"COMPOUND": "CCOC(=O)CCc1ccc(NC(=O)/C=C/c2ccc([N+](=O)[O-])o2)cc1", "GROUP": "Y"}

For CC1NOC(=O)C1/N=N/c1cccc(Cl)c1 (centres undefined) , which call appears in the assay record?
N

For COC1CC(NC(=O)C(F)(F)F)C(OC(C)=O)C(C)O1 (centres undefined) , which call appears in the assay record?
N

For COC(=O)c1ccc(CCc2cc(O)ccc2O)cc1 , which call appears in the assay record?
N

For COc1ccc(-c2c3c(n(C4OC(CO)C(O)C(O)C4O)c(=S)c2C#N)CCC3)cc1 (centres undefined) , which call appears in the assay record?
N

For CCCCc1ccc(Nc2nc(Cl)c3c(ncn3COCCOC(C)=O)n2)cc1 , which call appears in the assay record?
N

For COc1cc([C@@H]2c3cc4c(cc3[C@@H](Nc3ccc(Cl)cc3C(=O)c3ccccc3)[C@H]3COC(=O)[C@H]23)OCO4)cc(OC)c1OC , which call appears in the assay record?
Y

For COc1cc(C2C(=O)C(Cl)N2Nc2nc(C)cc(O)n2)cc(OC)c1OC (centres undefined) , which call appears in the assay record?
N

For CC(=C(C(=O)O)C(=O)O)c1cc(-c2cccs2)cc(-c2ccc(Cl)cc2)c1O , which call appears in the assay record?
N
